Test system: Raoultella planticola
Experiment: Antibacterial activity against Klebsiella planticola MTCC 530 after 24 hrs by well diffusion method
Type: functional
Details: MTCC 530, 24 h
outcome.measure: MIC

compound=O=C(Cn1nc(C(F)(F)F)c2c(-c3ccccc3)c3ccccc3nc21)N1CCOCC1 experimental_system="Raoultella planticola" result="15.6 µg/mL"
compound=CCNC(=O)Cn1nc(C(F)(F)F)c2c(C)c3ccccc3nc21 experimental_system="Raoultella planticola" result="7.8 to 125 µg/mL"
compound=Cc1nn(CC(=O)N2CCCCC2)c2nc3ccccc3c(C)c12 experimental_system="Raoultella planticola" result="7.8 to 125 µg/mL"
compound=O=C(Cn1nc(C(F)(F)F)c2c(-c3ccccc3)c3ccccc3nc21)NC1CC1 experimental_system="Raoultella planticola" result="7.8 to 125 µg/mL"
compound=Cc1c2ccccc2nc2c1c(C(F)(F)F)nn2CC(=O)NC1CCCC1 experimental_system="Raoultella planticola" result="7.8 to 125 µg/mL"
compound="O=C(O)c1cn(C2CC2)c2cc(N3CCNCC3)c(F)cc2c1=O [CIPROFLOXACIN]" experimental_system="Raoultella planticola" result="0.9 µg/mL"
compound=COc1ccc(NC(=O)Cn2nc(C)c3c(C)c4ccccc4nc32)cc1 experimental_system="Raoultella planticola" result="7.8 to 125 µg/mL"
compound=Cc1c2ccccc2nc2c1c(C(F)(F)F)nn2CC(=O)NCc1ccco1 experimental_system="Raoultella planticola" result="7.8 to 125 µg/mL"
compound=O=C(Cn1nc(C(F)(F)F)c2c(-c3ccccc3)c3ccccc3nc21)N1CCCCC1 experimental_system="Raoultella planticola" result="7.8 to 125 µg/mL"
